# TEST_SYSTEM: T1, human HVEM expressed on transduced BJAB cells (full length) (human, UniProt Q92956 39-283)
# T1 construct: also called hHVEM; hHVEM-IRES-GFP
# T1 sequence: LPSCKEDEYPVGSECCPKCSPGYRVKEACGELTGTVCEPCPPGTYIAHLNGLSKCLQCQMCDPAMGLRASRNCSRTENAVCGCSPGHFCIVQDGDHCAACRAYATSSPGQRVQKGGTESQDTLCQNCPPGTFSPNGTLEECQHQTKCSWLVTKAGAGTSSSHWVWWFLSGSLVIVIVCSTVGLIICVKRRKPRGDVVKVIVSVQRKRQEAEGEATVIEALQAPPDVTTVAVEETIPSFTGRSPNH
# PROTOCOL: flow cytometry on transduced BJAB cells

BINDER	binding result
mouse BTLA tetramer (allele not stated at these places) (other, UniProt Q7TSA3 30-166, looked up, biotinylated; bound to streptavidin-phycoerythrin, domain: BTLA Ig domain; also called BTLA tetramers; tetramers of mouse BTLA) EKATKRNDEECPVQLTITRNSKQSARTGELFKIQCPVKYCVHRPNVTWCKHNGTICVPLEVSPQLYTSWEENQSVPVFVLHFKPIHLSDNGSYSCSTNFNSQVINSHSVTIHVRERTQNSSEHPLITVSDIPDATNA	no binding
BALB/c BTLA tetramer-phycoerythrin (other, biotinylated in vitro with BirA ligase; bound to streptavidin-phycoerythrin, also called BALB-BTLA pET28 product; not shown: biotinylation tag of the MLL1-pET28 vector) DEECEVQLNIKRNSKHSAWTGELFKIECPVKYCVHRPNVTWCKHNGTIWVPLEVGPQLYTSWEENRSVPVFVLHFKPIHLSDNGSYSCSTWFWSQVINSHSVTIHVR	no binding
C57BL/6 BTLA tetramer-phycoerythrin (other, biotinylated in vitro with BirA ligase on the C-terminal BirA sequence; bound to streptavidin-phycoerythrin, also called B6-BTLA pET28 product) EKATKRNDEECPVQLTITRNSKQSARTGELFKIQCPVKYCVHRPNVTWCKHNGTICVPLEVSPQLYTSWEENQSVPVFVLHFKPIHLSDNGSYSCSTNFNSQVINSHSVTIHVTERTQNSSEHPLIISDIPDATNASGGGLNDIFEAQKIEWHE	no binding
human BTLA-Fc fusion protein (Fc fusion, Used as 1 ml of supernatant for staining; also called hBTLA-Fc; not shown: Fc-αTP part of the CD47-Fc-αTP-ires-GFP-RV vector (detected with anti-human IgG)) KESCDVQLYIKRQSEHSILAGDPFELECPVKYCANRPHVTWCKLNGTTCVKLEDRQTSWKEEKNISFFILHFEPMLPNDNGSYRCSANFQSNLIESHSTTLYVTDVKGASERPSKDEVA	binds
